- experimentalDetails: proliferation blockers of H69AR lung cancer cells, primary screen, cell-based, human, 86K library (AID 598);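 note: multidrug resistant small cell line overexpressing MRP-1 efflux transporter; 100% = mean luminescence of untreated control wells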
- statedConditions: H69AR lung tumor viability, ATP luminescence, 72 h; at 10 µM; hits give low values
Hit rate of the full screen: of about 85,000 compounds, about 5,100 (6%) were called active. What follows is part of a selection rich in actives, with near analogues and random picks from the rest.
observable: viability (%)

[[record]]
compound = "CN(C)c1ccc(CNC2C3CC4CC(C3)CC2C4)cc1 (configuration not stated)"
observable = "viability"
recordedvalue = 99.4

[[record]]
compound = "Cc1ccc(-c2noc(CSc3nnc(-c4cccs4)n3C)n2)cc1"
observable = "viability"
recordedvalue = 98.8

[[record]]
compound = "Oc1ccc(-c2csc(Nc3cccnc3)n2)cc1"
observable = "viability"
recordedvalue = 54.4

[[record]]
compound = "Cc1ccc(/C=N/NC(=O)Cn2nc(C)c(Br)c2C)o1"
observable = "viability"
recordedvalue = 102

[[record]]
compound = "COCCNS(=O)(=O)c1cc(Br)ccc1OC"
observable = "viability"
recordedvalue = 106

[[record]]
compound = "O=C(Cn1c(-c2cscn2)nc2ccccc21)Nc1ccc(Cl)cc1"
observable = "viability"
recordedvalue = 72.9

[[record]]
compound = "CCCCNC(=O)C1(c2ccc(OC)cc2)CCOCC1"
observable = "viability"
recordedvalue = 93.8

[[record]]
compound = "CC(C)NC(=O)C(=O)NCCN1CCN(S(=O)(=O)c2ccc(Cl)cc2)CC1"
observable = "viability"
recordedvalue = 94.6

[[record]]
compound = "C=CCN(C(=O)Cn1ncc2c1-c1cc(C)ccc1OC2)c1ccccc1"
observable = "viability"
recordedvalue = 84.9

[[record]]
compound = "Cc1ccc(O/C=C2\\OC(=O)c3ccccc32)cc1"
observable = "viability"
recordedvalue = 89.6

[[record]]
compound = "CCCn1c(=O)c2ccccc2n2c(SCC(=O)/C(C#N)=C(\\C)N)nnc12"
observable = "viability"
recordedvalue = 79.8

[[record]]
compound = "O=S(=O)(O)c1nc2ccccc2n1Cc1ccc(Cl)cc1"
observable = "viability"
recordedvalue = 86.1

[[record]]
compound = "COc1cc(S(=O)(=O)N(Cc2cccs2)C2CC2)ccc1-n1cnnn1"
observable = "viability"
recordedvalue = 68

[[record]]
compound = "O=C(O)[C@@H]1CCCN1c1ncnc2sc3c(c12)CCC3"
observable = "viability"
recordedvalue = 86.5

[[record]]
compound = "CCOc1ccc(S(=O)(=O)NCC2CCCO2)cc1 (configuration not stated)"
observable = "viability"
recordedvalue = 97

[[record]]
compound = "Cn1c(=N)n(CC(O)c2ccccc2)c2ccccc21 (configuration not stated)"
observable = "viability"
recordedvalue = 80.7

[[record]]
compound = "CC(C)C(=O)NC(NC(=S)NC1CCS(=O)(=O)C1)C(Cl)(Cl)Cl (configuration not stated)"
observable = "viability"
recordedvalue = 102


====

- experimentalDetails: proliferation blockers of H69AR lung cancer cells, primary screen, cell-based, human, 86K library (AID 598);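 note: multidrug resistant small cell line overexpressing MRP-1 efflux transporter; 100% = mean luminescence of untreated control wells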
- statedConditions: H69AR lung tumor viability, ATP luminescence, 72 h; at 10 µM; hits give low values
Among all 85,000 compounds or so, about 5,100 (6%) were called active. Many of the other results were omitted from the sample, so actives are more common in it than they were.
Cut-off 80% on viability: below means met, at or above means not met.

[[record]]
molecule = "Cc1ccccc1N1CCN(CCCOc2ccc3c(C)cc(=O)oc3c2)CC1"
classification = "met"

[[record]]
molecule = "C=C(C)CSc1nnc(-c2ccc(C)cc2)n1N"
classification = "not met"

[[record]]
molecule = "COc1ccc(C(C#N)Nc2ccc(C)cc2)cc1 (centres undefined)"
classification = "not met"

[[record]]
molecule = "CCN1C(=O)C(CC(=O)Nc2cc(C)ccc2C)SC1=Nc1ccc(S(N)(=O)=O)cc1 (centres undefined)"
classification = "not met"

[[record]]
molecule = "Fc1ccc2nc(Nc3nc4c(s3)CCCC4)sc2c1"
classification = "met"

[[record]]
molecule = "CCCCNC(=O)CCNC(=O)c1ccc(C(C)(C)C)cc1"
classification = "not met"

[[record]]
molecule = "Cc1cc(C)cc(N(CC(=O)N2CC=C(c3ccccc3)CC2)S(=O)(=O)c2c(C)noc2C)c1"
classification = "met"

[[record]]
molecule = "COC(=O)Cn1nc(-c2ccccc2)c2cc(Cl)ccc21"
classification = "not met"

[[record]]
molecule = "CN(c1nc2ccccc2n2c(-c3ccco3)nnc12)S(=O)(=O)c1ccccc1"
classification = "not met"

[[record]]
molecule = "Cc1[nH][nH]c(=O)c1N=Nc1ccccc1"
classification = "not met"

[[record]]
molecule = "CNC(=O)c1ccc2nc(NC(C)=O)sc2c1"
classification = "not met"

[[record]]
molecule = "CSc1ncccc1C(=O)OCC(=O)N1CCOCC1"
classification = "not met"

[[record]]
molecule = "COC(=O)Cn1c2ccc(C)cc2c2nc(C)sc21"
classification = "not met"

[[record]]
molecule = "CC(=O)Nc1ccc(NC(=O)c2sc3nc4c(c(-c5ccc(C)cc5)c3c2N)CCC4)cc1"
classification = "met"

[[record]]
molecule = "CCOC(=O)N1CCN(C(c2cccnc2)c2ccc3cccnc3c2O)CC1 (centres undefined)"
classification = "met"

[[record]]
molecule = "CC(=O)C1=C(C)NC(C)=C(C(C)=O)C1c1cn(-c2ccccc2)nc1-c1cccs1"
classification = "not met"

[[record]]
molecule = "CCOc1ncccc1C(=O)OCc1cn2cc(Cl)ccc2n1"
classification = "met"

[[record]]
molecule = "Cn1nc(-c2ccccc2)c(CSc2cccc(Cl)c2)c1Cl"
classification = "met"

[[record]]
molecule = "CS(=O)(=O)N(Cc1nc2sc3c(c2c(=O)[nH]1)CCCC3)C1CCCCC1"
classification = "met"

[[record]]
molecule = "CCCc1nc2scc(-c3ccc(C)cc3)c2c(=O)n1N"
classification = "met"

[[record]]
molecule = "O=C(N/N=C/c1ccc(O)cc1)/C(=C/c1ccc([N+](=O)[O-])cc1)NC(=O)c1ccccc1"
classification = "not met"

[[record]]
molecule = "COc1ccc(C(=O)OCC(=O)NCC2CCCCC2)cc1S(=O)(=O)N1CCCc2ccccc21"
classification = "met"

[[record]]
molecule = "CCCCn1c(SCc2ncc(-c3ccccc3)o2)nc2cc(S(N)(=O)=O)ccc21"
classification = "met"

[[record]]
molecule = "CCCCC(C(=O)OCC(=O)c1ccc(OC)cc1)N1C(=O)c2ccccc2C1=O (centres undefined)"
classification = "not met"

[[record]]
molecule = "Cc1ccc(S(=O)(=O)NC(=O)COc2ccccc2C)cc1"
classification = "not met"

[[record]]
molecule = "O=S(=O)(NN=C1CCCCCCC1)c1ccc(Br)cc1"
classification = "not met"

[[record]]
molecule = "FC(F)(F)c1cc(-c2ccco2)nc(NCc2ccc(Cl)cc2)n1"
classification = "not met"

[[record]]
molecule = "Fc1ccc2nc(N3CCCCC3)sc2c1"
classification = "not met"

[[record]]
molecule = "Cc1c(CCO)c(=O)n(-c2ccccc2)n1S(=O)(=O)c1ccc(F)cc1"
classification = "met"

[[record]]
molecule = "c1ccc2c(-c3nn4nnnc4c4ccccc34)cccc2c1"
classification = "met"

[[record]]
molecule = "CCCCc1nnc(NC(=O)CSc2nc(C)cc(=O)[nH]2)s1"
classification = "not met"

[[record]]
molecule = "Cc1cc(=O)oc2cc(NC(=O)C3CC(=O)N(Cc4ccccc4)C3)ccc12 (centres undefined)"
classification = "not met"

[[record]]
molecule = "O=C(O)CSc1nccn1-c1cccc(Cl)c1"
classification = "not met"

